Experiment: Metabolic stability in human liver microsomes assessed as intrinsic clearance measured per mg of protein in presence of NADPH measured upto 60 mins in presence of 2 uM ketoconazole by LC-MS/MS analysis
Type: ADME, Microsome
Conditions: 1 h
quantity.name: CLint (µL/min/mg)
// units = µL/min/mg; emit number, no label

**Query** Would you mind telling me what CLint value was observed for CNC(=O)SCCCCCCC(=O)Nc1nc(-c2ccc(F)cc2)cs1 ?
**Result** 115

**Query** What about CC(C)(C)C(=O)NCSCCCCCCC(=O)Nc1nc(-c2ccc(F)cc2)cs1 ?
**Result** 74

**Query** What about CC(C)N(C(=O)SCCCCCCC(=O)Nc1nc(-c2ccc(F)cc2)cs1)C(C)C ?
**Result** 67

**Query** What about CN(C)C(=O)SCCCCCCC(=O)Nc1nc(-c2ccc(F)cc2)cs1 ?
**Result** 351

**Query** What about CC(=O)NCSCCCCCCC(=O)Nc1nc(-c2ccc(F)cc2)cs1 ?
**Result** 93

---

Assay: Metabolic stability in human liver microsomes assessed as half life in presence of NADPH measured upto 60 mins in presence of 5 mM BNPP carboxylesterase inhibitor by LC-MS/MS analysis
Assay type: ADME, Microsome
Conditions: with BNPP (carboxylesterase inhibitor)
quantity.name: half-life (min)
// units = min; emit number, no label

# smiles.input, quantity.name, measurement.unit, value.measured
measured = [
    ("CCC(=O)SCCCCCCC(=O)Nc1nc(-c2ccc(F)cc2)cs1", "half-life", "min", 9.11),
    ("O=C(CCCCCCSP(=O)(c1ccccc1)c1ccccc1)Nc1nc(-c2ccc(F)cc2)cs1", "half-life", "min", 24.5),
    ("CC(=O)NCSCCCCCCC(=O)Nc1nc(-c2ccc(F)cc2)cs1", "half-life", "min", 81.4),
    ("CN(C)C(=O)SCCCCCCC(=O)Nc1nc(-c2ccc(F)cc2)cs1", "half-life", "min", 22.8),
    ("CC(C)N(C(=O)SCCCCCCC(=O)Nc1nc(-c2ccc(F)cc2)cs1)C(C)C", "half-life", "min", 17.1),
    ("O=C(CCCCCCSC(=O)c1ccc(C(F)(F)F)cc1)Nc1nc(-c2ccc(F)cc2)cs1", "half-life", "min", 14.5),
    ("CC(C)(C)SSCCCCCCC(=O)Nc1nc(-c2ccc(F)cc2)cs1", "half-life", "min", 15.8),
    ("CC(C)(C)C(=O)NCSCCCCCCC(=O)Nc1nc(-c2ccc(F)cc2)cs1", "half-life", "min", 27.6),
    ("CNC(=O)SCCCCCCC(=O)Nc1nc(-c2ccc(F)cc2)cs1", "half-life", "min", 54.9),
]

**Query** Would you mind telling me what half-life value was observed for O=C(CCCCCCSC(=O)c1ccccc1)Nc1nc(-c2ccc(F)cc2)cs1 ?
**Result** 36.3

---

Experiment: Metabolic stability in human liver microsomes assessed as intrinsic clearance measured per mg of protein in presence of NADPH measured upto 60 mins in presence of 2 uM ticlopidine by LC-MS/MS analysis
Type: ADME, Microsome
Details: 1 h
quantity.name: CLint
Answer with the number, then the unit.

Completed entries (count: 4):
# smiles.input, CLint
rows = [
    ("CN(C)C(=O)SCCCCCCC(=O)Nc1nc(-c2ccc(F)cc2)cs1", "737 µL/min/mg"),
    ("CC(=O)NCSCCCCCCC(=O)Nc1nc(-c2ccc(F)cc2)cs1", "260 µL/min/mg"),
    ("CNC(=O)SCCCCCCC(=O)Nc1nc(-c2ccc(F)cc2)cs1", "283 µL/min/mg"),
    ("CC(C)(C)C(=O)NCSCCCCCCC(=O)Nc1nc(-c2ccc(F)cc2)cs1", "1520 µL/min/mg"),
]

Kindly review the next compound as well.
**Query** Would you mind telling me what CLint value was observed for CC(C)N(C(=O)SCCCCCCC(=O)Nc1nc(-c2ccc(F)cc2)cs1)C(C)C ?
**Result** 1520 µL/min/mg
